# SYSTEM TESTED: c-kit kinase (Homo sapiens, UniProt P10721)
# Construct: The c-kit (or kinase domain thereof) is an active kinase in AlphaScreen; poly-Histidine tag (in-house protein only) (cleaved yes); host or cells: E. coli BL21(DE3)RIL, co-expressed with PTP1B
# Sequence (P10721 26-976): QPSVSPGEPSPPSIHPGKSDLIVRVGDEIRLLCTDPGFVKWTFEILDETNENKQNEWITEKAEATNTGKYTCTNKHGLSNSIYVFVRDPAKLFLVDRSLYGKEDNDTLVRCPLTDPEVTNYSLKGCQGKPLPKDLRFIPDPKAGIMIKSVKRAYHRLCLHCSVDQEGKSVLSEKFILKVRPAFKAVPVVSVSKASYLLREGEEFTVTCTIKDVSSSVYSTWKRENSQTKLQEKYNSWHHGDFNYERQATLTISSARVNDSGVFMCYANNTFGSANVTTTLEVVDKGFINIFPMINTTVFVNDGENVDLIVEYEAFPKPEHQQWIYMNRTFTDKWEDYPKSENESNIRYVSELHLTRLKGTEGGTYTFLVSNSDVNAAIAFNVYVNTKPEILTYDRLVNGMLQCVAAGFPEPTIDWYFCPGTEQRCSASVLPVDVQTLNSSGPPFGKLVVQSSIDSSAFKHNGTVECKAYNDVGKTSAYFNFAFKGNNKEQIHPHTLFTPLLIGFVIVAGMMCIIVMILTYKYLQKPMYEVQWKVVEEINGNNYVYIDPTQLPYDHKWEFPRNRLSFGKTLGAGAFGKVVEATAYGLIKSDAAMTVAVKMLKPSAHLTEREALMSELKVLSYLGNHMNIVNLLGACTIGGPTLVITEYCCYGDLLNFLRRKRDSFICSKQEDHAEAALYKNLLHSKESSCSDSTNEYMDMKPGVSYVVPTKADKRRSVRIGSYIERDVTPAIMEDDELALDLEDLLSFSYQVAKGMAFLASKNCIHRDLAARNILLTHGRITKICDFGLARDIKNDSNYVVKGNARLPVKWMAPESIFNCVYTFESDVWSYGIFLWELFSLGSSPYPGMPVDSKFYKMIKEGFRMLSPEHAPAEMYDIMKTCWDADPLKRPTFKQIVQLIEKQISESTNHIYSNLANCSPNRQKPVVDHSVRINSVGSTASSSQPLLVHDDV
# PROTOCOL: c-Kit biochemical assay, AlphaScreen, 10 μM ATP
# STATED CONDITIONS: c-kit biochemical inhibitory activity; read-out: Biochemical activity (IC50 μM) Kit
# Procedure: IC50 values are determined with respect to inhibition of c-Kit kinase activity, where inhibition of phosphorylation of a peptide substrate is measured as a function of compound concentration. Compounds to be tested were dissolved in DMSO to a concentration of 20 mM. These were diluted 30 μl into 120 μl of DMSO (4 mM) and 1 μl was added to an assay plate. […] The samples were incubated for 60 minutes at room temperature and the signal per well was read on AlphaQuest reader. […]
RESULT TYPE: IC50

>>> df
                              line_notation  result_type        result
0  COc1cc2ncnc(-c3ccc(NS(=O)(=O)c4ccc(Cl)cc4)cc3F)c2cc1OC         IC50    1 to 10 µM
1  O=C(NC1CCN(c2ncnc3[nH]ccc23)CC1)C1CCCCC1         IC50  10 to 200 µM
2  Cc1n[nH]c2ncnc(-c3ccc(NS(=O)(=O)c4ccc(C(F)(F)F)cc4)cc3)c12         IC50    1 to 10 µM
3  COc1cc2ncnc(-c3ccc(S(=O)(=O)NC4CC4)cc3)c2cc1OC         IC50  10 to 200 µM
4  COc1ccc(S(=O)(=O)Nc2ccc(-c3ncnc4[nH]c(C)cc34)cc2)cc1F         IC50  10 to 200 µM
